# TEST_SYSTEM: Notum (core, 81–451C330S) (Homo sapiens, UniProt Q6P988, C330S)
# Construct: high-throughput biochemical assay with Notum (81–451C330S) and OPTS as a synthetic fluorescent substrate; made in house
# Sequence (Q6P988 81-451 C330S): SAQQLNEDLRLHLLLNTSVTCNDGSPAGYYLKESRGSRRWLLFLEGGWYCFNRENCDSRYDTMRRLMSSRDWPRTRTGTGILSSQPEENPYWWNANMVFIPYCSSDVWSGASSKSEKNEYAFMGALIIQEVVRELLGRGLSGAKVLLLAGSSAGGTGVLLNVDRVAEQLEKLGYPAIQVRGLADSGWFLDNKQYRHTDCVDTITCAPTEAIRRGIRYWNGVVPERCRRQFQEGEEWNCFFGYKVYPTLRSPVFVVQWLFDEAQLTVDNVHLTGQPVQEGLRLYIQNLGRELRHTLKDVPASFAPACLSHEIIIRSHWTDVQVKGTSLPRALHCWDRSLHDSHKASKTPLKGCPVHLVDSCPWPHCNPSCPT
# TEST_PROTOCOL: Notum-OPTS biochemical assay, Notum (81–451C330S)
# MEASUREMENT_PARAMETERS: Table 2; mean ± s.d. of n = 4–12; >10 = 20–50% inhibition @ 10 μM; read-out: Notum IC50
IC50 under 500 nM gets rule met, anything at or over 500 nM gets rule not met.

| COMPOUND | ASSIGNED_CATEGORY |
| --- | --- |
| CC(=O)N1CC(C)c2ccccc21 (stereo not drawn) | rule met |
| CC(=O)N1CCc2cc(C(F)(F)F)ccc21 | rule not met |
| CC(=O)N1CCc2ccc(Cl)c(Cl)c21 | rule not met |
| CC(=O)N1CC2(CC2)c2ccccc21 | rule met |

Pending compound:
Asked: Does the reported IC50 of the following compound sit strictly below 500 nM? `CC(=O)N1CC2(CC2)c2c1cccc2C(F)(F)F`
Given back: rule met

----------
# System: MDR1
# TEST_PROTOCOL: Permeability using MDR1-MDCKII cell monolayer
# Assay type: in vitro ADME
# MEASUREMENT_PARAMETERS: dog, MDCK-MDR1, Table S3; mean n=2
QUANTITY_MEASURED: efflux ratio

Asked: If you can, please state the reported efflux ratio value of `CC(=O)N1CCc2c1ccc(Cl)c2Cl` .
Given back: 0.59

----------
# solubility values compiled below
# TEST_PROTOCOL: Aqueous solubility in PBS (pH 7.4)
# Format: physicochemical
# MEASUREMENT_PARAMETERS: Table 3; PBS pH 7.4
Form entry: value (µg/mL) — number only.

The cases that follow already have their solubility on record.
| SMILES_REPR | solubility (µg/mL) |
| --- | --- |
| CC(=O)N1CCc2c1ccc(Cl)c2C(F)(F)F | 1.6 |
| CC(=O)N1CC2(CC2)c2c(Cl)cccc21 | 0.2 |

Asked: If you can, please state the reported solubility value of `CC(=O)N1CCc2c1ccc(Cl)c2Cl` .
Given back: 0.4

----------
# half-life values compiled below
# TEST_PROTOCOL: Stability in human liver microsomes
# Type: in vitro ADME
# MEASUREMENT_PARAMETERS: human, read-out: HLM Stability t1/2
Form entry: value (min) — number only.

The cases that follow already have their half-life on record.
| SMILES_REPR | OBSERVED_RESULT |
| --- | --- |
| CC(=O)N1CCc2c(Cl)cccc21 | 2.2 |
| CC(=O)N1CCc2c1cccc2C(F)(F)F | 1.5 |

Asked: If you can, please state the reported half-life value of `CC(=O)N1CCc2c1ccc(Cl)c2Cl` .
Given back: 10

----------
# TEST_PROTOCOL: Aqueous solubility in PBS (pH 7.4)
# Type: physicochemical
# MEASUREMENT_PARAMETERS: PBS; Table S2; pH 7.4; n = 2; * below lower limit of quantification; read-out: Thermodynamic Solubility @ RT
# Protocol: Selected compounds were routinely screened for aqueous solubility in PBS (pH 7.4), transit performance in MDCK-MDR1 cell lines for permeability, and metabolic stability in MLM and HLM as a measure of clearance. The main metabolites and routes of metabolism of 4y were determined in MLM. Assay protocols and additional data are presented in the Supplementary Material (Tables S1–S7). ADME studies reported in this work were performed by WuXi AppTec (Shanghai, China). […]
# solubility thermodynamic values compiled below
Form entry: value (µg/mL) — number only.

The cases that follow already have their solubility thermodynamic on record.
| COMPOUND | UNIT_SYMBOL | solubility thermodynamic |
| --- | --- | --- |
| O=C1CCC2Cc3ccccc3N12 (centres unmarked) | µg/mL | 577 |
| CC(=O)N1CC2(CC2)c2c(Cl)cccc21 | µg/mL | 0.186 |

Asked: If you can, please state the reported solubility thermodynamic value of `CC(=O)N1CCc2c1ccc(Cl)c2C(F)(F)F` .
Given back: 1.55
